Biological target: human FLAP (Homo sapiens (Human))
Test: FLAP binding assay (HTRF format)
Conditions: read-out: FLAP Binding wild type HTRF Ki
pKi: −log10 of the molar value. Counter-ions that a name gives are not always drawn.
outcome_measure: pKi

compound	study_target	outcome_measure	quantitative_result
Cc1ccc(COc2cc(F)c3nc(CC4(C(=O)O)CCCC4)n(Cc4ccc(OC(F)(F)F)cc4)c3c2)nc1 [Example 72, TFA salt]	human FLAP (Homo sapiens (Human))	pKi	7.22

====

Target: human FLAP (Homo sapiens (Human), UniProt P20292)
Sequence (P20292 whole entry): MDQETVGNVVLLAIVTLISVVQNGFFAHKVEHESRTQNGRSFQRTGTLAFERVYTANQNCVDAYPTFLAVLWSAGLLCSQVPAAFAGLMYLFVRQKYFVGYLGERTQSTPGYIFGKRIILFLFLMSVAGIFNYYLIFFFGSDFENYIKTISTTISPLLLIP
Experiment: FLAP binding assay (HTRF format)
Conditions: human FLAP-containing Sf-9 membranes, 25 nM HTRF ligand, 2 h; average of runs; read-out: FLAP Binding wild type HTRF Ki
pKi: −log10 of the molar value. Where a name gives a salt, the structure may show the parent alone.

compound	study_target	pKi
Cc1ccc(COc2ccc3nc(C4CCCC[C@H]4C(=O)O)n(Cc4ccc(N5CCC(F)(F)CC5)cc4F)c3c2)nc1 (mixture of isomers)	human FLAP (Homo sapiens (Human), UniProt P20292)	8.40
CCC(CC)(Cc1nc2ccc(OCc3ccc(C)cn3)cc2n1Cc1ccc(OC(F)(F)F)cc1C)C(=O)O	human FLAP (Homo sapiens (Human), UniProt P20292)	7.40
Cc1cnc(COc2ccc3nc(CC(C)(C)C(=O)O)n(Cc4cccc(-c5ccc(C(F)(F)F)cc5)c4)c3c2)c(F)c1	human FLAP (Homo sapiens (Human), UniProt P20292)	7.89
Cc1ccc(COc2ccc3nc([C@@H]4CCCC[C@@H]4C(=O)O)n(Cc4ccc(OC(F)(F)F)cc4C)c3c2)nc1 (racemic)	human FLAP (Homo sapiens (Human), UniProt P20292)	7.72
CCC(CC)(Cc1nc2ccc(OCc3ccn(C)n3)cc2n1Cc1ccc(OC(F)(F)F)cc1F)C(=O)O	human FLAP (Homo sapiens (Human), UniProt P20292)	7.34
CCC(CC)(Cc1nc2ccc(OCc3ncc(C)cc3F)cc2n1Cc1ccc(N2CCC(C)CC2)cc1)C(=O)O	human FLAP (Homo sapiens (Human), UniProt P20292)	8.52
CCC(CC)(Cc1nc2ccc(OCc3ccc(C)cn3)cc2n1Cc1ccc(OC(F)(F)F)cc1)C(=O)O	human FLAP (Homo sapiens (Human), UniProt P20292)	7.62
Cc1ccc(COc2ccc3nc(C4CCCC[C@@H]4C(=O)O)n(Cc4ccc(C#N)cc4)c3c2)nc1 (mixture of isomers) [Example 18, TFA salt]	human FLAP (Homo sapiens (Human), UniProt P20292)	7.28
Cn1cc(Cl)c(COc2ccc3nc([C@@H]4CCCC[C@@H]4C(=O)O)n(Cc4ccc(N5CCC(F)CC5)cc4)c3c2)n1 (racemic)	human FLAP (Homo sapiens (Human), UniProt P20292)	7.82
Cn1cc(F)c(COc2ccc3nc([C@@H]4CCCC[C@@H]4C(=O)O)n(Cc4ccc(OC(F)(F)F)cc4F)c3c2)n1 (racemic)	human FLAP (Homo sapiens (Human), UniProt P20292)	8.85
Cc1cnc(COc2ccc3nc([C@H]4CCCC[C@H]4C(=O)O)n(Cc4ccc(-c5ccc(C(F)(F)F)cc5)cc4)c3c2)c(F)c1 (single isomer, unassigned)	human FLAP (Homo sapiens (Human), UniProt P20292)	9.33
Cc1ccc(COc2ccc3nc([C@H]4CCCC[C@H]4C(=O)O)n(Cc4cccc(-c5ccc(C(F)(F)F)cc5)c4)c3c2)nc1 (racemic)	human FLAP (Homo sapiens (Human), UniProt P20292)	8.14
Cc1cnc(COc2ccc3nc(CC(C)(C)C(=O)O)n(Cc4ccc(N5CCC(F)CC5)cc4F)c3c2)c(F)c1	human FLAP (Homo sapiens (Human), UniProt P20292)	7.52
Cc1cnc(COc2ccc3nc(CC(C)(C)C(=O)O)n(Cc4ccc(-c5ccc(C(F)(F)F)cc5)cc4)c3c2)c(F)c1	human FLAP (Homo sapiens (Human), UniProt P20292)	8.13
Cn1ccc(COc2cc(F)c3nc([C@H]4CCCC[C@H]4C(=O)O)n(Cc4ccc(OC(F)(F)F)cc4F)c3c2)n1 (racemic) [Example 96, HCl salt]	human FLAP (Homo sapiens (Human), UniProt P20292)	8.15
Cc1cnc(COc2ccc3nc([C@@H]4CCCC[C@@H]4C(=O)O)n(Cc4ccc(N5CCC(C)CC5)cc4)c3c2)c(F)c1 (racemic)	human FLAP (Homo sapiens (Human), UniProt P20292)	8.92
CCC(CC)(Cc1nc2ccc(OCc3ccc(C)cn3)cc2n1Cc1cccc(-c2ccc(C(F)(F)F)cc2)c1)C(=O)O	human FLAP (Homo sapiens (Human), UniProt P20292)	7.44
Cn1cc(Cl)c(COc2ccc3nc([C@@H]4CCCC[C@@H]4C(=O)O)n(Cc4ccc(OC(F)(F)F)cc4F)c3c2)n1 (racemic)	human FLAP (Homo sapiens (Human), UniProt P20292)	8.38
CCC(CC)(Cc1nc2ccc(OCc3ccc(C)cn3)cc2n1Cc1ccc(OC(F)(F)F)c(Cl)c1)C(=O)O	human FLAP (Homo sapiens (Human), UniProt P20292)	7.96
Cc1ccc(Cn2c([C@@H]3CCCC[C@@H]3C(=O)O)nc3c(F)cc(OCc4ccn(C)n4)cc32)cc1 (racemic) [Example 97, HCl salt]	human FLAP (Homo sapiens (Human), UniProt P20292)	8.12
CCC(CC)(Cc1nc2ccc(OCc3ncc(C)cc3F)cc2n1Cc1ccc(N2CCC(F)CC2)cc1)C(=O)O	human FLAP (Homo sapiens (Human), UniProt P20292)	7.96
Cn1ccc(COc2ccc3nc([C@@H]4CCCC[C@@H]4C(=O)O)n(Cc4ccc(OC(F)(F)F)cc4F)c3c2F)n1 (racemic)	human FLAP (Homo sapiens (Human), UniProt P20292)	8.18
CCC(CC)(Cc1nc2ccc(OCc3ccn(C)n3)cc2n1Cc1ccc(-c2ccc(C(F)(F)F)cc2)cc1F)C(=O)O [Example 187]	human FLAP (Homo sapiens (Human), UniProt P20292)	8.14
Cc1ccc(Cn2c(CC3(C(=O)O)CCCC3)nc3c(F)cc(OCc4ccc(C)cn4)cc32)cc1 [Example 73, TFA salt]	human FLAP (Homo sapiens (Human), UniProt P20292)	7.28
